target.under.test: HIV-1 envelope 3637_V5_C3 (HIV-1)
procedure.text: cell-based or functional assay
Reported IC50, PSV assay values are given for each entry in this list.

# binder, measured.parameter, result.value
data = [
    ("bNAb16 (antibody, V domains shown) VH: EVQLVESGGGLVKPGGSLRLTCVASGFTFSDVWLNWVRQAPGKGLEWVGRIKSRTDGGTTDYAASVKGRFTISRDDSKNTLYLQMNSLKTEDTAVYSCTTDGFIMIRGVSEDYYYYYMDVWGKGTTVTVSS VL: QSVLTQPPSVSAAPGQKVTISCSGSSSNIGNNYVLWYQQFPGTAPKLLIYGNNKRPSGIPDRFSGSKSGTSATLGITGLQTGDEADYFCATWDSGLSADWVFGGGTKLTVLG", "IC50, PSV assay", "> 500 nM"),
]

Consider the additional binder presented here.
IC50, PSV assay lookup needed for bNAb14 (antibody, V domains shown) VH: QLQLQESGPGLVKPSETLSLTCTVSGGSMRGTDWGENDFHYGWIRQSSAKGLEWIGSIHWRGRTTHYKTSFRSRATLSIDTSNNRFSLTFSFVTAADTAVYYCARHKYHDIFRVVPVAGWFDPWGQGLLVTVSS VL: EIVMTQSPPTLSVSPGETATLSCRASQNVKNNLAWYQLKPGQAPRLLIFDASSRAGGIPDRFSGSGYGTDFTLTVNSVQSEDFGDYFCQQYEEWPRTFGQGTKVDIKR , thanks.
> 500 nM

Data credit: patent US20250250328A1
